Numbers sourced from PubChem BioAssay AID1645865.

biological target: Ubiquitin carboxyl-terminal hydrolase 30 (Homo sapiens) (UniProt Q70CQ3); experiment: inhibitors of ubiquitin-specific protease 30 deubiquitylating enzyme, concentration dependence, in vitro biochemical, validation of primary hits (AID 1645865); conditions: purified USP30, Ub-rhodamine cleavage, fluorescence, 2 h
Sequence (Q70CQ3 whole entry, looked up): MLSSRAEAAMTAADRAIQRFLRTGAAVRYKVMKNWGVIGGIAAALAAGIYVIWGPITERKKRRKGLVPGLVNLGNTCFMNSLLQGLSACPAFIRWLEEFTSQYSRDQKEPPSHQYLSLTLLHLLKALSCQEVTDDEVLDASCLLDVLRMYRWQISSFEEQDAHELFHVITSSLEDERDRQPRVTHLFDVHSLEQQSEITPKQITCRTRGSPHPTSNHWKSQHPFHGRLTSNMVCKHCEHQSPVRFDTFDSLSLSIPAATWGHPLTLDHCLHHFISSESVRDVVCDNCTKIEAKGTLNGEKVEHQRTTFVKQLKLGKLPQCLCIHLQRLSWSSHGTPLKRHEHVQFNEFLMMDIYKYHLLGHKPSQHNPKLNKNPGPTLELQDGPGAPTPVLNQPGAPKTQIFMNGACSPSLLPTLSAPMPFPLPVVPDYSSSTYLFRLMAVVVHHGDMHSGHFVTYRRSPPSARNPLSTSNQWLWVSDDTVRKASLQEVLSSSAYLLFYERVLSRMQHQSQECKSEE
Calls of active or inactive are those of the source.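 Rule for the calls: active = maximal inhibition of the USP30 enzyme reaching 30% or more across the dose series; inactive = the rest.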
Respond with a class label; see active, inactive

Consider the following illustrative entries.
Compound | Study Target | Label
Cc1ccc(-n2c(=O)c3ccccc3n(Cc3c(F)cccc3Cl)c2=O)cc1 | Ubiquitin carboxyl-terminal hydrolase 30 (Homo sapiens) (UniProt Q70CQ3) | active
Cc1cc(C)c2cc(C(=O)NC3CCN(Cc4ccccc4)CC3)[nH]c2c1 | Ubiquitin carboxyl-terminal hydrolase 30 (Homo sapiens) (UniProt Q70CQ3) | active
O=C(COc1ccc(F)cc1)Nc1cc(F)c2nc(N3CCOCC3)ccc2c1 | Ubiquitin carboxyl-terminal hydrolase 30 (Homo sapiens) (UniProt Q70CQ3) | inactive
Cc1ccc(C)c(NS(=O)(=O)c2cc(-c3cnc(C4CC4)o3)ccc2C)c1 | Ubiquitin carboxyl-terminal hydrolase 30 (Homo sapiens) (UniProt Q70CQ3) | inactive
O=C1CC(O)C(C2=CC(=O)c3c(O)cccc3C2=O)O1 (stereo not drawn) | Ubiquitin carboxyl-terminal hydrolase 30 (Homo sapiens) (UniProt Q70CQ3) | active
O=C(Nc1cccc(Cl)c1)c1ncn2c1CNS(=O)(=O)c1ccccc1-2 | Ubiquitin carboxyl-terminal hydrolase 30 (Homo sapiens) (UniProt Q70CQ3) | active

Task: I'd appreciate the recorded outcome for O=C(Oc1ccc(-c2cnc3ccccc3n2)cc1)c1ccc(F)cc1 from this test.
Output: active

Task: Look up the recorded call for Cc1cnc(CN2CCCC(c3ccc4cn[nH]c4n3)C2)cn1 (stereo not drawn) in this test.
Output: inactive

Task: Field: outcome | Entry: O=C(NCc1ccc(F)cc1)c1cc(-n2cnnn2)ccc1Cl
Output: active

Task: Each compound tested received a call. Report the one for CC(C)(C)C(=O)Nc1ccc(C(=O)Nc2cccc(-c3nnc(-c4ccccc4)o3)c2)cc1 .
Output: active

Task: # outcome recorded in this test, key = CN(C)c1ccc(C2CC(c3c(O)n(C)c(=O)[nH]c3=O)=Nc3ccccc3S2)cc1 (stereo not drawn)
Output: active

Task: Fill in: this test's call for N#Cc1ccc(COC(=O)c2ccc3ccccc3n2)cc1 is ___
Output: inactive

Task: Dear all, I need the recorded test outcome for CC(=O)c1ccc(N2C(=O)N(Cc3cccc([N+](=O)[O-])c3)c3ccccc3S2(=O)=O)cc1 , thank you.
Output: inactive

Task: What call does the record list for CCc1nc2c(NC(=O)Nc3cccc(C(=O)OC)c3)cccn2n1 ?
Output: inactive

Task: Call for entry CCCCn1c(=O)c(CCC(=O)OCC(=O)Nc2ccc3c(c2)OCCO3)nc2ccccc21 :
Output: inactive

Task: Can you look up the reported call for Cc1cc(C)nc(-n2nc(C)c3c2NC(=O)CSC3c2ccccc2F)n1 (stereo not drawn) for me?
Output: active

Task: Hi, sorry to bother you, what did the test record for CC(C)NS(=O)(=O)c1cccc2c(NC(=O)C(Cc3ccccc3)NC(=O)c3ccccc3)cccc12 (stereo not drawn) ?
Output: active

Task: Status in this test for COc1ccc(NC(=O)c2[nH]nc3c2COc2ccccc2-3)c(OC)c1 ?
Output: active

Task: Kindly provide the recorded test outcome for the following compound: COc1ccc(CNC(=O)C(C)n2nc(-c3ccco3)c(-c3cc(C)no3)cc2=O)cc1 (stereo not drawn)
Output: inactive

Task: Would you mind telling me which call this test gave COc1ccc(CCNC(=O)CSc2cn(CCNC(=O)c3ccc(F)cc3)c3ccccc23)cc1OC ?
Output: active

* * *

Catalogue of compounds with associated IC50
biological target: Ubiquitin carboxyl-terminal hydrolase 30 (Homo sapiens); assay: inhibitors of ubiquitin-specific protease 30 deubiquitylating enzyme, concentration dependence, in vitro biochemical, validation of primary hits (AID 1645865); details: purified USP30, Ub-rhodamine cleavage, fluorescence, 2 h
Activity calls are given as the source filed them.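 The calls were made as follows: active = maximal inhibition of the USP30 enzyme reaching 30% or more across the dose series; inactive = the rest.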

As a guide, the following entries are already answered.
Compound | IC50
Cc1cc2nc(Oc3cccc(Cl)c3)c3ccccc3n2n1 | 2.04 µM
Fc1cccc(-n2cc(-c3noc(-c4ccccn4)n3)nn2)c1 | 27 µM
O=C(O)COc1ccccc1/C=C1\CCc2c1nc1ccccc1c2C(=O)O | > 50 µM (inactive)

Task: Field request: IC50 | item: Cc1ccc(C)c(CSC2=NCCN2C(=O)c2ccco2)c1
Output: > 50 µM (inactive)

Task: Give the measured IC50 of COc1ccc(-n2ccc(=O)c(-c3nc(-c4ccccc4F)no3)n2)cc1OC .
Output: > 50 µM (inactive)

Task: // query IC50 value for entry CCN1C(=O)c2cccnc2Sc2cc(NC(=O)c3ccc(Cl)s3)ccc21
Output: > 50 µM (inactive)

Task: What value of IC50 has been reported for the following compound? CS(=O)(=O)NC1CCCN(C(=O)Nc2cccc3ccccc23)C1 (stereo not drawn)
Output: > 50 µM (inactive)

Task: Recorded IC50 of CCCCN(CC)c1ncnc2c1sc1nc(-c3ccco3)c3c(c12)CC(C)(C)OC3 , please.
Output: > 50 µM (inactive)

Task: # input compound: O=C(Nc1ccc2c(c1)OCCO2)c1ccc(N2CCCC2=O)cc1 ; wanted: its IC50
Output: 42.4 µM

Task: Returns the measured IC50 for the input compound. Input: O=C(Nc1cc(F)ccc1F)c1ccn(COc2ccc(F)c(Cl)c2)n1
Output: 22 µM

Task: Name the reported IC50 value associated with the compound Cc1ccc2nc(NC(=O)CSc3nnc(-c4ccncc4)n3C3CC3)sc2c1
Output: 2.81 µM

Task: Entry O=C(COc1ccc(Cl)cc1)NCc1nnc(SCC(=O)NCc2ccc3c(c2)OCO3)o1 has what IC50?
Output: 25.8 µM

Task: Name the recorded IC50 for Fc1ccc(Oc2nc(CN3CCOCC3)nc3sc4c(c23)CCCC4)c(Cl)c1 .
Output: > 50 µM (inactive)

Task: // IC50 lookup, key: Cc1c(C)n(-c2ccccc2)c2ncn(CC(=O)NC(C)c3ccccc3)c(=O)c12 (stereo not drawn)
Output: 23 µM

Task: Could you share which IC50 value was measured for CCS(=O)(=O)N1CCc2cc(C(=O)Nc3ccc4c(c3)OCCO4)ccc21 ?
Output: > 50 µM (inactive)

Task: Which IC50 value belongs to Cc1ccc2c(c1)N=C(c1ccc([N+](=O)[O-])cc1)CO2 ?
Output: > 50 µM (inactive)

Task: Using the record for Cc1cc(C)cc(N(CCC(=O)Nc2ccc(N3CCOCC3)cc2)S(=O)(=O)c2ccc(Cl)cc2)c1 , report its IC50.
Output: 12.3 µM

Task: Can you share its IC50? I mean this compound: Cc1cnnn1-c1ccc(C(=O)Nc2ccc(Cl)cc2)cc1
Output: 29.5 µM

Task: Query: IC50; subject: CC(=O)c1ccc(NC(=O)c2nc3ccccc3nc2N2CCOCC2)cc1
Output: > 50 µM (inactive)

* * *

biological target: UniProt Q70CQ3; assay: inhibitors of ubiquitin-specific protease 30 deubiquitylating enzyme, concentration dependence, in vitro biochemical, validation of primary hits (AID 1645865); conditions: purified USP30, Ub-rhodamine cleavage, fluorescence, 2 h;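 active = maximal inhibition of the USP30 enzyme reaching 30% or more across the dose series; inactive = the rest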
The reply should name one outcome from active, inactive

Compound | Label
COc1ccccc1S(=O)(=O)N1CC[C@@H]2CN(C)[C@@H]2C1 | active

Then this compound:
Task: Entry CCc1ccccc1NC(=O)c1cc(-c2ccccn2)n[nH]1 : call = ?
Output: active

* * *

biological target: Ubiquitin carboxyl-terminal hydrolase 30 (Homo sapiens) (UniProt Q70CQ3); assay: inhibitors of ubiquitin-specific protease 30 deubiquitylating enzyme, concentration dependence, in vitro biochemical, validation of primary hits (AID 1645865); conditions: purified USP30, Ub-rhodamine cleavage, fluorescence, 2 h
Activity calls are given as the source filed them.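 The calls were made as follows: active = maximal inhibition of the USP30 enzyme reaching 30% or more across the dose series; inactive = the rest.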
Pick from true (1) = active, false (0) = inactive when you respond.

Would you please look over these solved cases?
Molecule | Study Target | Label
CC(C)c1nc2sc3c(N(CCO)CCO)ncnc3c2c2c1COC(C)(C)C2 | Ubiquitin carboxyl-terminal hydrolase 30 (Homo sapiens) (UniProt Q70CQ3) | false (0)
CC(C)Cc1nc2oc3c(N(C)CCO)ncnc3c2c2c1CCC2 | Ubiquitin carboxyl-terminal hydrolase 30 (Homo sapiens) (UniProt Q70CQ3) | false (0)
O=C(NCc1cccnc1)C1CCN(c2cnc(N3CCCCCC3)nc2)CC1 | Ubiquitin carboxyl-terminal hydrolase 30 (Homo sapiens) (UniProt Q70CQ3) | false (0)
O=C(/C=C/c1ccc2c(c1)OCO2)Nc1nc2c(s1)COCC2 | Ubiquitin carboxyl-terminal hydrolase 30 (Homo sapiens) (UniProt Q70CQ3) | true (1)
Nc1ccc(NC(=O)c2cc3c(s2)CCC3)cc1[N+](=O)[O-] | Ubiquitin carboxyl-terminal hydrolase 30 (Homo sapiens) (UniProt Q70CQ3) | true (1)

Task: Write down the call the test reported for this molecule. Item: Cn1cc(-c2cnc(-c3cccc(F)c3)nc2)cc1C(=O)NCc1cccnc1
Output: true (1)

Task: Which result was noted for this molecule in the test: CCOC(=O)c1nc(Nc2ccc(OC)c(Cl)c2)c2ccccc2n1
Output: true (1)

Task: Test call for this molecule, please: COc1ccc(C2/C(=C(\O)c3ccccc3)C(=O)C(=O)N2c2nc3ccc(F)cc3s2)cc1 (stereo unspecified)
Output: true (1)

Task: Status in this test for Cc1ccc(C)c(S(=O)(=O)N2CCN(c3ccc4nnc(-c5ccco5)n4n3)CC2)c1 ?
Output: false (0)

Task: Outcome? Cc1ccc(-c2nc(N3CCCC(O)C3)ncc2-c2cnccn2)s1 (stereo unspecified)
Output: false (0)

Task: Recorded call for COc1cccc2c1NC(=O)C21CCN(C(=O)Nc2cccc(C)c2)CC1 ?
Output: true (1)

Task: Record lookup: outcome of this test for Fc1ccc(CN2CCc3nc4cccnc4cc3C2)cc1 ?
Output: false (0)

Task: Query: recorded result category for O=C(c1ccsc1)N1CCC2(C1)Nc1cccnc1NC2=NC1CCCC1 (stereo unspecified) in this test
Output: false (0)
